target.entity: T1, human GLP-1 receptor (human, UniProt P43220 24-463)
T1 construct: whole, on cells
procedure.summary: competitive SPA, displacement of [125I]-GLP-1-(7-36)NH2 from BHK membranes with human GLP-1 receptor, low HSA (max. 0.001%)
Starred links: 1 amine or outer side, 2 acyl side, 3 side chain; linkers in the order of their positions; H or OH if unused. Non-standard residues stand in square brackets, D forms with d. Groups on a side chain read outwards from the residue. No end group written: not given here. *: point of attachment. Amino‑C3‑Gly(Bis) = branched linker 2-[bis(3-aminopropyl)amino]acetyl, two legs on the propylamino groups, O=C(CN(CCCN[*:1])CCCN[*:3])[*:2]; C20 diacid = O=C(O)CCCCCCCCCCCCCCCCCCC(=O)*; C18 diacid = O=C(O)CCCCCCCCCCCCCCCCC(=O)*; γGlu = O=C(O)[C@H](CCC(=O)[*:2])N[*:1]; Trx = NC[C@H]1CC[C@H](C(=O)O)CC1; AEEA = NCCOCCOCC(=O)O; Aib = CC(C)(N)C(=O)O
Here, each record is paired with measured pIC50 data.
// pIC50 is dimensionless: -log10 of concentration (M)

Observe how each entry below is paired with its result.
Query: Recorded pIC50 for H[Aib]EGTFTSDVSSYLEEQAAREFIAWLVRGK([Amino‑C3‑Gly(Bis)-code 2×AEEA-AEEA-AEEA-AEEA-γGlu-C18 diacid])G , please?
Result: 9.17

Query: Entry H[Aib]EGTFTSDVSSYLEEQAAREFIEWLVRGK([AEEA-AEEA-AEEA-AEEA-Amino‑C3‑Gly(Bis)-code 2×γGlu-C18 diacid])G please
Result: 8.96

Query: Repeat with XXEGTFTSDVSSYLEEQAAREFIAWLVRGRK (not fully specified; Imp (imidazopropionic acid, deamino-histidine) at 7; Aib at 8; Lys37 epsilon-acylated with the branched side chain of the name (GLP-1(7-37) numbering, first residue = 7)) [N{Epsilon-37}-[2-[3-[[2-[2-[2-[[2-[2-[2-[[2-[2-[2-[[2-[2-[2-[[(2S)-2- …]
Result: 9.89

Query: // repeat for H[Aib]EGTFTSDVSSYLEEQAAREFIAWLVRGRPK([Amino‑C3‑Gly(Bis)-code 2×AEEA-AEEA-AEEA-AEEA-AEEA-AEEA-γGlu-Trx-C20 diacid]) (analogue (8Aib, 22E, 26R, 34R, 37P, 38K) GLP-1(7-37)) and report
Result: 9.51

New cases:
Query: Endpoint output: pIC50 of H[Aib]EGTFTSDVSSYLEEQAAREFIAWLVRK([AEEA-AEEA-AEEA-AEEA-AEEA-AEEA-Amino‑C3‑Gly(Bis)-code 2×γGlu-Trx-C20 diacid])RG (X = Aib) [N{Epsilon-35}-[2-[2-[2-[[2-[2-[2-[[2-[2-[2-[[2-[2-[2-[[2-[2-[2-[[2- …] . Value?
Result: 9.48

Query: Now this one: H[Aib]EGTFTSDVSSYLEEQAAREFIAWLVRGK([AEEA-AEEA-AEEA-AEEA-AEEA-AEEA-Amino‑C3‑Gly(Bis)-code 2×γGlu-Trx-C20 diacid])G [N{Epsilon-36}-[2-[2-[2-[[2-[2-[2-[[2-[2-[2-[[2-[2-[2-[[2-[2-[2-[[2- …]
Result: 8.92
